Biological target: Sarcoplasmic/endoplasmic reticulum calcium ATPase 3 (Mus musculus, UniProt Q64518)
Sequence (Q64518 whole entry): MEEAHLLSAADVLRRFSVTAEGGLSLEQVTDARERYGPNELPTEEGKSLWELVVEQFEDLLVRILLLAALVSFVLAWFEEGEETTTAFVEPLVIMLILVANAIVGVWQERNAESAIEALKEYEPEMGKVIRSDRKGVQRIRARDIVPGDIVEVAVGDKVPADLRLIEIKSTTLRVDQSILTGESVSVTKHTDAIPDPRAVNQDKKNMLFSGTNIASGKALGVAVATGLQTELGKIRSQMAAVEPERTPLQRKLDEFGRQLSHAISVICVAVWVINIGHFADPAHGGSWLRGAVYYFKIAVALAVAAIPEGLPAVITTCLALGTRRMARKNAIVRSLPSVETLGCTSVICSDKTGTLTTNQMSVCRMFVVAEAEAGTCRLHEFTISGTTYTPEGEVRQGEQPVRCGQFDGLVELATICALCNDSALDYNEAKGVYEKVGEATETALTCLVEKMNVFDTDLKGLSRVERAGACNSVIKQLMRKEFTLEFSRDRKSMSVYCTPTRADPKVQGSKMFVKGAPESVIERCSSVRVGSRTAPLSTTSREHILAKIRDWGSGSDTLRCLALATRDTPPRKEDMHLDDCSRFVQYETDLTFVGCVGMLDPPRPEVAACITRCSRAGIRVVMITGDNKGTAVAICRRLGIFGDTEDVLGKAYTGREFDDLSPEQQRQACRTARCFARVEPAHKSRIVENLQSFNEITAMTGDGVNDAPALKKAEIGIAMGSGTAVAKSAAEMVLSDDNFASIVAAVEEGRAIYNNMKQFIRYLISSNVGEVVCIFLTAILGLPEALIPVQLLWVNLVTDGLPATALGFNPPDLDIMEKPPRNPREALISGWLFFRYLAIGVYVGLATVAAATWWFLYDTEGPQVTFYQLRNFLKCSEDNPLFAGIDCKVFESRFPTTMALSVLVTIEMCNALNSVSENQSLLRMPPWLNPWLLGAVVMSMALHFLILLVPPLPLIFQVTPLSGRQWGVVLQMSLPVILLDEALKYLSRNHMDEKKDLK
Experiment: Inhibition of SERCA3 in mouse testicular microsomes
Observed property: IC50

Chemical structure	Assay value
CCCCCCCCCc1ccc(O)cc1	0.35 to 6 µM

----------
Test: Inhibition of Porcine cerebellar microsomes SERCA preincubated for 10 mins followed by addition of ATP and measured after 10 mins by colorimetric method
Parameters: species or system Sus scrofa domesticus, Cerebellum
pIC50: −log10 of the molar value.
Observed property: pIC50

Sequence data	Assay value
IVERMECTIN	4.82

----------
Quick list: IC50 per entry.
Target: Sarcoplasmic/endoplasmic reticulum calcium ATPase 1 (Oryctolagus cuniculus, UniProt P04191)
Sequence (P04191 whole entry): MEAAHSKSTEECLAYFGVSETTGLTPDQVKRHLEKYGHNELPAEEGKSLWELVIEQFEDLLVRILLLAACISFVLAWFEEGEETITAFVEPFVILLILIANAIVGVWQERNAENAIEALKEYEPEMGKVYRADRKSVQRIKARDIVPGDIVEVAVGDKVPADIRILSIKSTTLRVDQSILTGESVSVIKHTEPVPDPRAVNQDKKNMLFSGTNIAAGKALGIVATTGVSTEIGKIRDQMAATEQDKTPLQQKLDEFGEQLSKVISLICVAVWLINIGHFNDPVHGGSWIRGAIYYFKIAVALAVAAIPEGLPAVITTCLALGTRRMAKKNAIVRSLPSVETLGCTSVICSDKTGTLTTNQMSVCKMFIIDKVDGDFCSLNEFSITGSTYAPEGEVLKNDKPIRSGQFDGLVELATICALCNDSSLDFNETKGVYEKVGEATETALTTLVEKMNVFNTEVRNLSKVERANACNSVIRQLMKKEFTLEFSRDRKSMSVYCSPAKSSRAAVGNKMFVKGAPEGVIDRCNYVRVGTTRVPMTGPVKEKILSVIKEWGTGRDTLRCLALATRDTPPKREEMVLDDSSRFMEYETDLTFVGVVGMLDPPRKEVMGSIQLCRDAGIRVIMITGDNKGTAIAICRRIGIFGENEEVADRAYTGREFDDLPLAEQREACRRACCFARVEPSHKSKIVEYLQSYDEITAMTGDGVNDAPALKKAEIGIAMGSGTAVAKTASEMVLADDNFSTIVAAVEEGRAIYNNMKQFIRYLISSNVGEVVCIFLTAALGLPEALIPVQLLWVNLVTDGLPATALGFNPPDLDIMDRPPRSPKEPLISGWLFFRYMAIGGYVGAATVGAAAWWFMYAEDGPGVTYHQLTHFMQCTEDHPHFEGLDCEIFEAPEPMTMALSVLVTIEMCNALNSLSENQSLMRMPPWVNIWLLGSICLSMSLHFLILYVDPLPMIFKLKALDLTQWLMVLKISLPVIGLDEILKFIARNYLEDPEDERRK
Assay: Inhibition of rabbit skeletal muscle microsomes SERCA1a incubated for 10 mins by enzyme-coupled method

Compound	IC50
Clc1ccc(C(c2ccc(Cl)cc2)[n+]2ccn(CC(OCc3ccc(Cl)cc3Cl)c3ccc(Cl)cc3Cl)c2)cc1 (stereo not given) [CALMIDAZOLIUM CHLORIDE]	0.5 µM
CN1CCN(CCCN2c3ccccc3Sc3ccc(C(F)(F)F)cc32)CC1	45 µM
OCCN1CCN(CCCN2c3ccccc3Sc3ccc(C(F)(F)F)cc32)CC1	15 µM
CN(C)CCCN1c2ccccc2Sc2ccc(Cl)cc21	23 µM
COc1ccc2c(c[n+](C)c3c4cc5c(cc4ccc23)OCO5)c1OC	1.2 µM
